# Tested on: biotinyl-Leu-oxazolone
# assay: self-aminoacylation, catalytic enhancement (BLO) (fold over background); higher = more active; k-Seq, kA / k0A0; sequences stand for … in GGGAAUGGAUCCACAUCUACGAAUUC…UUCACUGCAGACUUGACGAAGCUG
Variants at the floor of the assay were thinned out.
Please note: true applies when self-aminoacylation is 4 or greater, and false applies otherwise.

Below are worked cases with known answers.
sequence | answer-label
CCACCCUUCAAGCAAUAGGUC [Fam1B.1 aminoacylation ribozyme variant] | false
AUCCACCUAGGUCAUCGGUUG [Fam2.2 aminoacylation ribozyme variant] | false
AUCCACCUAGGUAAUCGGGUG [Fam2.2 aminoacylation ribozyme variant] | true

Query string: Could you please find out whether AUCACCCUGGUCAUCGAGUGA [Fam2.1 aminoacylation ribozyme variant] has self-aminoacylation that meets 4 or exceeds it?
Result string: true

Query string: Determine whether this sequence has self-aminoacylation no lower than 4: AUUUACCUCGGUCAUCGGGUG [Fam2.2 aminoacylation ribozyme variant]
Result string: true

Query string: Hi, just wondering whether CCACACUUCGAGUAAUCGGUC [Fam1B.1 aminoacylation ribozyme variant] shows self-aminoacylation of 4 or higher.
Result string: false

Query string: Threshold query (self-aminoacylation >= 4) on CUUCUUCAAACAAUCGGUCAG [Fam1A.1 aminoacylation ribozyme variant]
Result string: false

Query string: Item GUUACCCUGGUCAUCUAGUGA [Fam2.1 aminoacylation ribozyme variant] with self-aminoacylation of 4 or above?
Result string: true

Query string: Could you please find out whether AUUCACCUCGGACAUCGGGUG [Fam2.2 aminoacylation ribozyme variant] has self-aminoacylation that meets 4 or exceeds it?
Result string: true

Query string: API: above_or_equal(metric=self-aminoacylation, cutoff=4) for item AUGUUCGCUAAUAGUCGCAAG [Fam3.1 aminoacylation ribozyme variant]
Result string: false

----------
# Test system: biotinyl-Leu-oxazolone
# assay: self-aminoacylation, catalytic enhancement (BLO) (fold over background); higher = more active; k-Seq, kA / k0A0; sequences stand for … in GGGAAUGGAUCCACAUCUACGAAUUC…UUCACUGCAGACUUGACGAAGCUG
Variants at the floor of the assay were thinned out.
Readings of self-aminoacylation for the listed sequences
Lab note: jot the number down without any unit.

Field: example entries. Status: answers known.
sequence | target-under-test | self-aminoacylation
AACUUUGCUAAUAGUCGCAAC [Fam3.1 aminoacylation ribozyme variant] | biotinyl-Leu-oxazolone | 2.16
CCACGGUUCAAGCAAUCGGUC [Fam1B.1 aminoacylation ribozyme variant] | biotinyl-Leu-oxazolone | 1.07
AUUACCCUGGUCAUCCAGUGC [Fam2.1 aminoacylation ribozyme variant] | biotinyl-Leu-oxazolone | 2.19

Now let's try a different one.
The recorded self-aminoacylation with biotinyl-Leu-oxazolone for CCAAACUUCAAGCAAUUGGUC [Fam1B.1 aminoacylation ribozyme variant] was 0.767

----------
Listing of recorded self-aminoacylation by entry.
# Test system: biotinyl-Phe-oxazolone
# assay: self-aminoacylation, catalytic enhancement (BFO) (fold over background); higher = more active; k-Seq, kA / k0A0; sequences stand for … in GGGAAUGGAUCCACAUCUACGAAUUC…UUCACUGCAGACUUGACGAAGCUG
Variants at the floor of the assay were thinned out.
Reply with the value as a number alone.

Examples from the recorded data:
sequence | target-under-test | property-measured | recorded-number
CUACUUCAACCAAUCGGUGUG [Fam1A.1 aminoacylation ribozyme variant] | biotinyl-Phe-oxazolone | self-aminoacylation | 4.96
AUGCACCUAGGUCAUCGGGAG [Fam2.2 aminoacylation ribozyme variant] | biotinyl-Phe-oxazolone | self-aminoacylation | 1.08
AUUCACCUUGGUCCUCGGGUG [Fam2.2 aminoacylation ribozyme variant] | biotinyl-Phe-oxazolone | self-aminoacylation | 39.2
AAGUUUGCUAAUGGUCGAAAG [Fam3.1 aminoacylation ribozyme variant] | biotinyl-Phe-oxazolone | self-aminoacylation | 1.03

// sample AAGUUUGCUAGAAGUCGCAAG [Fam3.1 aminoacylation ribozyme variant] , its self-aminoacylation was 0.798

Form: sequence = GCACACUUCAAGCAAUCGGCC [Fam1B.1 aminoacylation ribozyme variant] ; self-aminoacylation = 4.88

Just so you know, measured self-aminoacylation for CCACAUUUCAAGCAACCGGUC [Fam1B.1 aminoacylation ribozyme variant] came out at 1.11

The sequence AAGUUUGCUAUUAGUUGCAAG [Fam3.1 aminoacylation ribozyme variant] showed self-aminoacylation equal to 1.46

self-aminoacylation in this record for AUUCACCUAGGUCAGCGGGCG [Fam2.2 aminoacylation ribozyme variant] : 27

----------
A collection of sequences and their measured self-aminoacylation
# Test system: biotinyl-Val-oxazolone
# assay: self-aminoacylation, catalytic enhancement (BVO) (fold over background); higher = more active; k-Seq, kA / k0A0; sequences stand for … in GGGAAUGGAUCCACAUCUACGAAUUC…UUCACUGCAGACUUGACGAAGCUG
Fewer inactive variants are shown than the library holds.
Answer with a number only.

Here's what some known entries look like.
sequence | self-aminoacylation
CUUCACCAAGGUCAUCGGGUG [Fam2.2 aminoacylation ribozyme variant] | 5.4
CUUCACCGAGGUCAUCGGGUG [Fam2.2 aminoacylation ribozyme variant] | 4.68
CUACUACAAACAAUCGGACUG [Fam1A.1 aminoacylation ribozyme variant] | 0.769

# sequence CCACACGUCAAGCAAUCGGUU [Fam1B.1 aminoacylation ribozyme variant] ; its self-aminoacylation = 2.28

----------
# Tested on: biotinyl-Met-oxazolone
# assay: self-aminoacylation, catalytic enhancement (BMO) (fold over background); higher = more active; k-Seq, kA / k0A0; sequences stand for … in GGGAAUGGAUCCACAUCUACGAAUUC…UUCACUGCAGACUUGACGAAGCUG
Fewer inactive variants are shown than the library holds.
property-measured: self-aminoacylation
Just the number.

# annotated cases, reported self-aminoacylation shown
sequence | self-aminoacylation
AAGUAUGCUAAUAGUCGCAAU [Fam3.1 aminoacylation ribozyme variant] | 2.13
CUACUUCAAAGCAUCGGUCUG [Fam1A.1 aminoacylation ribozyme variant] | 0.802
CCACACUUCUAGCAAUCGGAC [Fam1B.1 aminoacylation ribozyme variant] | 0.665
AAUACACUGGUCAUCGAGUGA [Fam2.1 aminoacylation ribozyme variant] | 4.13
AUACACCUAGGUUAUCGGGUG [Fam2.2 aminoacylation ribozyme variant] | 3.19

Record CUACUUCAAACAAGCGGUCUA [Fam1A.1 aminoacylation ribozyme variant] / biotinyl-Met-oxazolone, self-aminoacylation recorded as 0.838

Entry GAGUUUGCUAAUAGUCACAAG [Fam3.1 aminoacylation ribozyme variant] , biotinyl-Met-oxazolone data, self-aminoacylation value: 1.62

The value of self-aminoacylation recorded for AUUGCCCUGGUCAUCGAGUGU [Fam2.1 aminoacylation ribozyme variant] when tested on biotinyl-Met-oxazolone reads 64.6

Entry AAGUUUGAUAAUAGUCCCAAG [Fam3.1 aminoacylation ribozyme variant] ; assay system biotinyl-Met-oxazolone; self-aminoacylation recorded at 0.47

----------
# self-aminoacylation annotations
# System: biotinyl-Ile-oxazolone
# assay: self-aminoacylation, catalytic enhancement (BIO) (fold over background); higher = more active; k-Seq, kA / k0A0; sequences stand for … in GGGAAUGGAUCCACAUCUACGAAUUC…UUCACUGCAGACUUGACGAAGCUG
This sample holds only a part of the variants without activity.

Example entries begin here.
sequence | target-under-test | self-aminoacylation
ACACUUCAAACAAUCGGUCUG [Fam1A.1 aminoacylation ribozyme variant] | biotinyl-Ile-oxazolone | 1.7
CCUCACUUCAAGCAAUCGGCC [Fam1B.1 aminoacylation ribozyme variant] | biotinyl-Ile-oxazolone | 1.9

self-aminoacylation for biotinyl-Ile-oxazolone with input AUACACUUCAAGCAAUCGGUC [Fam1B.1 aminoacylation ribozyme variant] equals 1.05

self-aminoacylation for biotinyl-Ile-oxazolone with input CCAGACUUCAAGCAAUCGAUC [Fam1B.1 aminoacylation ribozyme variant] equals 0.714

----------
# System: biotinyl-Leu-oxazolone
# assay: self-aminoacylation, catalytic enhancement (BLO) (fold over background); higher = more active; k-Seq, kA / k0A0; sequences stand for … in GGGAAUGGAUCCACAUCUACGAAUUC…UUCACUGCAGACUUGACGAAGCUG
This sample holds only a part of the variants without activity.
property-measured: self-aminoacylation

sequence | target-under-test | self-aminoacylation
AUUACCCUAGUCAUGGAGUGA [Fam2.1 aminoacylation ribozyme variant] | biotinyl-Leu-oxazolone | 4.06
AUUCACCUAGGUAAUCUGGUG [Fam2.2 aminoacylation ribozyme variant] | biotinyl-Leu-oxazolone | 4.66
AUUCACCUAGGUCAGCGGGGG [Fam2.2 aminoacylation ribozyme variant] | biotinyl-Leu-oxazolone | 5.24
AAGUGUGCCAAUAGUCGCAAG [Fam3.1 aminoacylation ribozyme variant] | biotinyl-Leu-oxazolone | 1.78
AUUCACCUACGUCUUCGGGUG [Fam2.2 aminoacylation ribozyme variant] | biotinyl-Leu-oxazolone | 4.28

Item CUUCUUCAGACAAUCGGUCUG [Fam1A.1 aminoacylation ribozyme variant] was tested on biotinyl-Leu-oxazolone; the reported self-aminoacylation is 0.606

Fill in: biotinyl-Leu-oxazolone self-aminoacylation for AUUACCCUGCUCAUCGAAUGA [Fam2.1 aminoacylation ribozyme variant] = 0.735
